Origin of measurements: ChEMBL document CHEMBL1131147

Molecular target: Delta-type opioid receptor (Mus musculus)
Assay: Inhibition of DADLE binding to Opioid receptor delta 1 of mouse vas deferens
IC50 ratio strictly less than 10 = t. Otherwise f.

MOLECULE | CLASS_LABEL
O=C1/C(=C\c2ccc(F)cc2)C[C@@]2(O)C3Cc4ccc(O)c5c4C2(CCN3CC2CC2)[C@H]1O5 (some centres undefined) | t
COc1ccc(/C=C2/C[C@@]3(O)C4Cc5ccc(O)c6c5C3(CCN4CC3CC3)[C@@H](O6)C2=O)cc1 (some centres undefined) | t
O=C1/C(=C\c2ccc(-c3cccc4ccccc34)cc2)C[C@@]2(O)C3Cc4ccc(O)c5c4C2(CCN3CC2CC2)[C@H]1O5 (some centres undefined) | f
Cc1ccc(/C=C2/C[C@@]3(O)C4Cc5ccc(O)c6c5C3(CCN4CC3CC3)[C@@H](O6)C2=O)cc1 (some centres undefined) | f
O=C1/C(=C\c2ccccc2Cl)C[C@@]2(O)C3Cc4ccc(O)c5c4C2(CCN3CC2CC2)[C@H]1O5 (some centres undefined) | f
O=C1/C(=C\c2ccc(-c3ccc4ccccc4c3)cc2)C[C@@]2(O)C3Cc4ccc(O)c5c4C2(CCN3CC2CC2)[C@H]1O5 (some centres undefined) | f
O=C1/C(=C\c2ccccc2)C[C@@]2(O)[C@H]3Cc4ccc(O)c5c4[C@@]2(CCN3CC2CC2)[C@H]1O5 | f
O=C1/C(=C\c2cccc(F)c2)C[C@@]2(O)C3Cc4ccc(O)c5c4C2(CCN3CC2CC2)[C@H]1O5 (some centres undefined) | f

In plain terms, does O=C1/C(=C\c2cccc([N+](=O)[O-])c2)C[C@@]2(O)C3Cc4ccc(O)c5c4C2(CCN3CC2CC2)[C@H]1O5 (some centres undefined) come in under 10 for IC50 ratio?
t

Please do the same for O=C1/C(=C\c2ccc([N+](=O)[O-])cc2)C[C@@]2(O)C3Cc4ccc(O)c5c4C2(CCN3CC2CC2)[C@H]1O5 (some centres undefined) as well.
t

Please do the same for O=C1/C(=C\c2ccccc2F)C[C@@]2(O)C3Cc4ccc(O)c5c4C2(CCN3CC2CC2)[C@H]1O5 (some centres undefined) as well.
f

Please do the same for COc1ccccc1/C=C1/C[C@@]2(O)C3Cc4ccc(O)c5c4C2(CCN3CC2CC2)[C@@H](O5)C1=O (some centres undefined) as well.
f

Please do the same for COc1cccc(/C=C2/C[C@@]3(O)C4Cc5ccc(O)c6c5C3(CCN4CC3CC3)[C@@H](O6)C2=O)c1 (some centres undefined) as well.
f

Please do the same for COC(=O)c1ccc(/C=C2/C[C@@]3(O)C4Cc5ccc(O)c6c5C3(CCN4CC3CC3)[C@@H](O6)C2=O)cc1 (some centres undefined) as well.
f

###

Parameter Selectivity ratio: see the listing below.
Assay: Relative affinity for delta and kappa receptors
Write no unit; give the number alone.

See these solved cases before continuing.
COMPOUND | Selectivity ratio
O=C1/C(=C\c2ccccc2Cl)C[C@@]2(O)C3Cc4ccc(O)c5c4C2(CCN3CC2CC2)[C@H]1O5 (some centres not stated) | 130
COC(=O)c1ccc(/C=C2/C[C@@]3(O)C4Cc5ccc(O)c6c5C3(CCN4CC3CC3)[C@@H](O6)C2=O)cc1 (some centres not stated) | 14.6
O=C1/C(=C\c2ccccc2)C[C@@]2(O)[C@H]3Cc4ccc(O)c5c4[C@@]2(CCN3CC2CC2)[C@H]1O5 | 17.5
COc1ccccc1/C=C1/C[C@@]2(O)C3Cc4ccc(O)c5c4C2(CCN3CC2CC2)[C@@H](O5)C1=O (some centres not stated) | 120
O=C1/C(=C\c2ccc(-c3cccc4ccccc34)cc2)C[C@@]2(O)C3Cc4ccc(O)c5c4C2(CCN3CC2CC2)[C@H]1O5 (some centres not stated) | 6.9

Which measured Selectivity ratio value corresponds to O=C1/C(=C\c2cccc([N+](=O)[O-])c2)C[C@@]2(O)C3Cc4ccc(O)c5c4C2(CCN3CC2CC2)[C@H]1O5 (some centres not stated) ?
5.2

Please do the same for O=C1/C(=C\c2ccc(-c3ccc4ccccc4c3)cc2)C[C@@]2(O)C3Cc4ccc(O)c5c4C2(CCN3CC2CC2)[C@H]1O5 (some centres not stated) as well.
11.6
